target.entity: MDM2–p53 (Homo sapiens, UniProt Q00987)
Sequence (Q00987 whole entry): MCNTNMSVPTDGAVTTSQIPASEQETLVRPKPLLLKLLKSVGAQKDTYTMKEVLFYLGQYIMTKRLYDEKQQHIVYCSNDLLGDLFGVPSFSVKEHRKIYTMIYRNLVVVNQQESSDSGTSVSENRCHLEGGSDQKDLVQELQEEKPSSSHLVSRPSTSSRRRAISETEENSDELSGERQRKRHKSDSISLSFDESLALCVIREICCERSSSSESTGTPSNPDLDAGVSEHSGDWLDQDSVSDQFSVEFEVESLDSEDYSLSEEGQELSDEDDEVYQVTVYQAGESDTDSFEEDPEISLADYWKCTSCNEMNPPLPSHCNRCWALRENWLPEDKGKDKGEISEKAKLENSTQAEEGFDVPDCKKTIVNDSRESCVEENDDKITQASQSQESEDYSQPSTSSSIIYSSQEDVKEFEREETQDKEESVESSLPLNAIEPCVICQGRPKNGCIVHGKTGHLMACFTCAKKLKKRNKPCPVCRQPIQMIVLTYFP
assay.summary: MDM2–p53 ELISA protein–protein binding assay
measurement.name: pIC50
Answers are plain numbers, as −log10 of the molar value.

molecule: Cc1cc(C=C2C(=O)NC(=S)NC2=O)c(C)n1-c1sc2c(c1C#N)CCCC2 [Compound 3]
target.entity: MDM2–p53 (Homo sapiens, UniProt Q00987)
pIC50: 4.91
--
molecule: O=C1NC(=S)NC(=O)C1=Cc1cc(-c2ccccc2)n(-c2ccc(Cl)cc2)c1-c1ccccc1 [Compound 4c]
target.entity: MDM2–p53 (Homo sapiens, UniProt Q00987)
pIC50: 6.92
--
molecule: CN1C(=O)C(=Cc2cc(-c3ccccc3)n(-c3ccc(Br)cc3)c2-c2ccccc2)C(=O)NC1=S [Compound 4z]
target.entity: MDM2–p53 (Homo sapiens, UniProt Q00987)
pIC50: 7.14
--
molecule: CN1C(=O)C(=Cc2cc(-c3ccccc3)n(-c3ccc(Cl)cc3)c2-c2ccccc2)C(=O)NC1=S [Compound 4x]
target.entity: MDM2–p53 (Homo sapiens, UniProt Q00987)
pIC50: 6.96

Proceed to the following item.
Q: What measured pIC50 is associated with CN1C(=O)NC(=O)C(=Cc2cc(-c3ccccc3)n(-c3ccc(Br)cc3)c2-c2ccccc2)C1=O [Compound 4y] on MDM2–p53 (Homo sapiens, UniProt Q00987)?
Ans: 6.47
